// provenance: patent US20190127354A1

SUBJECT_OF_TEST: human DNMT1 (Homo sapiens)
Sequence (P26358 whole entry): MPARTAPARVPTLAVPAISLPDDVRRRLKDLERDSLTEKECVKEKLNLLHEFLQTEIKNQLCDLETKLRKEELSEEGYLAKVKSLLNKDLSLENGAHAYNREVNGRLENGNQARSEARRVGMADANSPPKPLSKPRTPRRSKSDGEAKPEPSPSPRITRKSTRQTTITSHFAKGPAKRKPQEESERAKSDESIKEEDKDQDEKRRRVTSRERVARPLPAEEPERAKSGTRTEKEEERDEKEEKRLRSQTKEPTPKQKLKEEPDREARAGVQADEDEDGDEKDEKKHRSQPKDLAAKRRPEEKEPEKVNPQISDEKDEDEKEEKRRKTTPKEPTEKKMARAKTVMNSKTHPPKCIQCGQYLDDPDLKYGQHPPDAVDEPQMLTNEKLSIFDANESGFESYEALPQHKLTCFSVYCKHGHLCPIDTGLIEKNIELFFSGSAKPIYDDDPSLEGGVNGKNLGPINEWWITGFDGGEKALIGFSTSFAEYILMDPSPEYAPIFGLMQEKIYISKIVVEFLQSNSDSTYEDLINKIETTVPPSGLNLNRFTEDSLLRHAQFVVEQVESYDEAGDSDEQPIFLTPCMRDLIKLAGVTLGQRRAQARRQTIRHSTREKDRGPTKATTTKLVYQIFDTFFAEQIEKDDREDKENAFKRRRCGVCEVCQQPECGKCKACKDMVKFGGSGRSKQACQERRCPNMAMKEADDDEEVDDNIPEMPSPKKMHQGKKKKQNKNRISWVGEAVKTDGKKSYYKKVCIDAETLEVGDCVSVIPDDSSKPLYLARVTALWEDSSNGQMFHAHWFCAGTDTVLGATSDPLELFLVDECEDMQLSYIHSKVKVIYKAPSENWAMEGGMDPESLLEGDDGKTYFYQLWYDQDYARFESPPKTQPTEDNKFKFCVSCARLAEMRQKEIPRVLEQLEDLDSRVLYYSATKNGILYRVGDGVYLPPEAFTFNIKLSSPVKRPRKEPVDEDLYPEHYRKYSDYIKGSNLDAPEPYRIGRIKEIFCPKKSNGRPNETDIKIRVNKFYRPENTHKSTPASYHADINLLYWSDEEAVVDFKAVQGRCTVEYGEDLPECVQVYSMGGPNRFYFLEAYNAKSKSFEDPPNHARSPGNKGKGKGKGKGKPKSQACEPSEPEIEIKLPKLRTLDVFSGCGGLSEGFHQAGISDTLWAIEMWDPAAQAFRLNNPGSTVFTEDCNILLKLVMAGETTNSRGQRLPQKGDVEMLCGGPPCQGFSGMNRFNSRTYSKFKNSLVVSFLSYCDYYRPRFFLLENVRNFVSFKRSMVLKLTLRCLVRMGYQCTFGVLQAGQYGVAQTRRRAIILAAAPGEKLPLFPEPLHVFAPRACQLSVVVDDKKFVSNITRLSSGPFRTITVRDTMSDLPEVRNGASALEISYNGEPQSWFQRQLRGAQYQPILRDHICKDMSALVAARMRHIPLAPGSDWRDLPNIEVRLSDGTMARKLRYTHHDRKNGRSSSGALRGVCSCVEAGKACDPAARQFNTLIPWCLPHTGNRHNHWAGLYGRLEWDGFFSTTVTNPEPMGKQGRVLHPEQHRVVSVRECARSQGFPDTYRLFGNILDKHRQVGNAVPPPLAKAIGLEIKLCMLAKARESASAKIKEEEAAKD
pIC50: −log10 of the molar value.
OUTCOME_MEASURE: pIC50

Past entries and their recorded results:
COc1cc2c(N(C)C3CC4(CCN(C(C)C)CC4)C3)cc(-c3ccc(C)o3)nc2cc1OC1CC2(C1)CN(C)C2 (stereo not shown) [Compound 1-14] :: 5.00 to 6.00
COc1cc2c(N(C)C3CC4(CCN(C(C)C)CC4)C3)cc(-c3ccc(C)o3)nc2cc1OC1CC2(C1)CN(CC#N)C2 (stereo not shown) [Compound 1-15] :: 5.00 to 6.00

Look at each molecule and report its pIC50.
1. COc1cc2c(C3CCN(C)CC3)cc(-c3ccc(C)o3)nc2cc1OCCCN1CCCC1 [Compound 4-02]
2. CCc1ccc(-c2cc(N(C)CC3CCN(C)CC3)c3cc(OC)c(OC4CC5(C4)CN(C)C5)cc3n2)o1 [Compound 1-10]
3. COc1cc2c(N(C)CC3CCN(C)CC3)cc(-c3ccc(C)o3)nc2cc1OCCCN1CCCC1 [Compound 1-03]
4. COc1cc2c(N(C)C3CC4(CCN(C)CC4)C3)cc(-c3ccc(C)o3)nc2cc1OCC1CCN(C)CC1 [Compound 1-08]

Return:
1: 5.00 to 6.00; 2: 5.00 to 6.00; 3: 6.30 to 7.00; 4: 5.00 to 6.00

Bench note, human DNMT1 (Homo sapiens): COc1cc2c(N(C)C3CCC4(CC3)CN(C)C4)cc(-c3ccc(C)o3)nc2cc1OCCCN1CCCC1 [Compound 1-18] , pIC50 reads 5.00 to 6.00

----------
Tested on: Hep3B
EXPERIMENTAL_DETAILS: Cell proliferation assay (CellTiter 96 Aqueous One Solution)
Type: cell-based
CONDITION_DETAILS: Homo sapiens, hepatocellular carcinoma cells, 48 hours of treatment
OUTCOME_MEASURE: GI50

Example cases with answers are listed next.
CCc1ccc(-c2cc(N(C)CC3CCN(C)CC3)c3cc(OC)c(OCCCN4CCCC4)cc3n2)o1 [Compound 1-04] :: 0.1 to 1 µM
COc1cc2c(N(C)CC3CCN(C)CC3)cc(-c3ccc(C)o3)nc2cc1OCCCN1CCCC1 [Compound 1-03] :: 0.1 to 1 µM
COc1cc2c(OC3CCN(C)CC3)cc(-c3ccc(C)o3)nc2cc1OCCCN1CCCC1 [Compound 3-01] :: 1 to 10 µM

# ---- query compound ----
// GI50 lookup, compound = COc1cc2c(N(C)C3CCN(C)CC3)cc(-c3ccc(C)o3)nc2cc1OCCCN1CCCC1 [Compound 1-02] , result: 1 to 10 µM

----------
Endpoint: IC50. System: human G9a enzyme (Homo sapiens). Items follow.

CCc1ccc(-c2cc(N(C)CC3CCN(C)CC3)c3cc(OC)c(OC4CC5(C4)CN(C)C5)cc3n2)o1 :: > 10 µM
COc1cc2c(N(C)C)cc(-c3ccc(C)o3)nc2cc1OCCCN1CCCC1 :: 1 to 10 µM
COc1cc2c(N(C)C3CC4(CCN(C)CC4)C3)cc(-c3ccc(C)o3)nc2cc1OCC1CCN(C)CC1 :: > 10 µM
COc1cc2c(N(C)C3CC4(CCN(C(C)C)CC4)C3)cc(-c3ccc(C)o3)nc2cc1OC1CC2(C1)CN(C)C2 (centres unmarked) :: > 10 µM

Here is another molecule to look at.
human G9a enzyme (Homo sapiens) IC50 of `CNC1CCN(c2cc(-c3ccc(C)o3)nc3cc(OCCCN4CCCC4)c(OC)cc23)CC1` is 1 to 10 µM

----------
SUBJECT_OF_TEST: human G9a enzyme (Homo sapiens, UniProt Q96KQ7)
Sequence (Q96KQ7 1-1210): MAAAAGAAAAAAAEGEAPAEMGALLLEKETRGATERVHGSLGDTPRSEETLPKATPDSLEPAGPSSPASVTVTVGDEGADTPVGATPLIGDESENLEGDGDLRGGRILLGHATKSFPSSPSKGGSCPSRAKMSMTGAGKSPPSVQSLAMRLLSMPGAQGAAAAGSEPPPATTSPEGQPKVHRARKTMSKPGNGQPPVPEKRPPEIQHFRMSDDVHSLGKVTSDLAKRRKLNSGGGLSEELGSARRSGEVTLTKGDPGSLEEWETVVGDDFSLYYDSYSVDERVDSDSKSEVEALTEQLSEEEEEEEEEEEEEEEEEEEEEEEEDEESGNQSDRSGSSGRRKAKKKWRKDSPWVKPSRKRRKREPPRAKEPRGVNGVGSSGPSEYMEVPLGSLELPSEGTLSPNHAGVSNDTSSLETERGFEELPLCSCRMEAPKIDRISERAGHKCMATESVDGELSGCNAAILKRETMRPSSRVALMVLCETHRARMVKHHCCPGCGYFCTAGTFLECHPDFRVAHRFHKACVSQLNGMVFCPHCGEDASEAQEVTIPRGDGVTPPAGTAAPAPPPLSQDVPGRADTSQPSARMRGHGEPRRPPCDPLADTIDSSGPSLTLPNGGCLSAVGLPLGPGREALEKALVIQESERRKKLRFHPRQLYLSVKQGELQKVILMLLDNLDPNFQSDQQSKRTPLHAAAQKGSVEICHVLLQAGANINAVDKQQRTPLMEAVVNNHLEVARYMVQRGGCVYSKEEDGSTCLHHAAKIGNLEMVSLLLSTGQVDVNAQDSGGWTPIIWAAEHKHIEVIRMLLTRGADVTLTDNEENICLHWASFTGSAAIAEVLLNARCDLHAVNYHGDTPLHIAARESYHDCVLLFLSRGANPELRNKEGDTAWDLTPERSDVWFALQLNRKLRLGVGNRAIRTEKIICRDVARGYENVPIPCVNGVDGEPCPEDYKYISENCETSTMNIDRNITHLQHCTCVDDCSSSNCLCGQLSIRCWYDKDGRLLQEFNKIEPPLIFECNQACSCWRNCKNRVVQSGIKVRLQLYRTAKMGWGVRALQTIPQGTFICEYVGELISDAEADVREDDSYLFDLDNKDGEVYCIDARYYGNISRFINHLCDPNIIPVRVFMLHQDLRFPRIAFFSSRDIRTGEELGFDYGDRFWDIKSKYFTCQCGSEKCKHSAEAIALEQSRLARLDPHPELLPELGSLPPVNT
pIC50: −log10 of the molar value.
OUTCOME_MEASURE: pIC50

Known pIC50 results, listed for orientation:
COc1cc2c(OC3CCN(C)CC3)cc(-c3ccc(C)o3)nc2cc1OC1CC2(C1)CN(C)C2 :: < 5.00
COc1cc2c(C3CCN(C)CC3)cc(-c3ccc(C)o3)nc2cc1OCCCN1CCCC1 :: 5.00 to 6.00
COc1cc2c(N(C)CC3CCN(C)CC3)cc(-c3ccc(C)[nH]3)nc2cc1OCCCN1CCCC1 :: 6.30 to 7.00
COc1cc2c(N(C)CC3CCN(C)CC3)cc(C3CCCCC3)nc2cc1OCCCN1CCCC1 :: 6.30 to 7.00
CCc1ccc(-c2cc(N(C)CC3CCN(C)CC3)c3cc(OC)c(OCCCN4CCCC4)cc3n2)o1 :: 6.00 to 6.30
COc1cc2c(N(C)CC3CCN(C)CC3)cc(-c3ccc(C)o3)nc2cc1OCCCN1CCCC1 :: 5.00 to 6.00
CNC1CCN(c2cc(-c3ccc(C)[nH]3)nc3cc(OCCCN4CCCC4)c(OC)cc23)CC1 :: 6.30 to 7.00
COc1cc2c(N3CCC(N(C)C)CC3)cc(-c3ccc(C)[nH]3)nc2cc1OCCCN1CCCC1 :: 6.30 to 7.00
COc1cc2c(N(C)C3CCN(C)CC3)cc(-c3ccc(C)[nH]3)nc2cc1OCCCN1CCCC1 :: > 7.00
COc1cc2c(N(C)C3CCN(C)CC3)cc(-c3cc(C)oc3C)nc2cc1OCCCN1CCCC1 :: 5.00 to 6.00

For the next question, use this compound.
Reported pIC50 for `COc1cc2c(N(C)CC3CCN(C)CC3)cc(-c3ccccc3)nc2cc1OCCCN1CCCC1` was 5.00 to 6.00

----------
pIC50: −log10 of the molar value.
Below are pIC50 values recorded for human DNMT1 (Homo sapiens, UniProt P26358).

Here are 7 molecules. What values of pIC50 were reported for them?
1. COc1cc2c(N(C)C)cc(-c3ccc(C)o3)nc2cc1OCCCN1CCCC1
2. COc1cc2c(N3CCC(CO)CC3)cc(-c3ccc(C)o3)nc2cc1OCCCN1CCCC1
3. COc1cc2c(N3CCC(N(C)C)CC3)cc(-c3ccc(C)[nH]3)nc2cc1OCCCN1CCCC1
4. CNCC1CCN(c2cc(C3CCCCC3)nc3cc(OCCCN4CCCC4)c(OC)cc23)CC1
5. COc1cc2c(N(C)CC3CCNCC3)cc(-c3ccccc3)nc2cc1OCCCN1CCCC1
6. COc1cc2c(N(C)C3CCN(C)CC3)cc(-c3ccc(C)[nH]3)nc2cc1OCCCN1CCCC1
7. COc1cc2c(N(C)CC3CCN(C)CC3)cc(-c3ccccc3)nc2cc1OCCCN1CCCC1

Return:
1: 5.00 to 6.00; 2: 5.00 to 6.00; 3: 6.30 to 7.00; 4: 5.00 to 6.00; 5: 6.00 to 6.30; 6: 6.00 to 6.30; 7: 6.00 to 6.30
